Test system: NCI-H23 lung
assay remarks: NCI tumour cell line growth inhibition, 48 h; in the data active means GI50 below about 0.43 µM; inactive means the rest
Valid outcomes are listed here; reply with one: yes (1) for active, no (0) for inactive

QUERY: Write down the call the test reported for this molecule. Item: COc1ccccc1N1CCN(CCCOc2ccc(C(=O)/C=C3/C(=O)Nc4ccccc43)cc2)CC1
RESULT: no (0)

QUERY: Write down the call the test reported for this molecule. Item: O=C(Nc1ccc(-n2ccc3c(NC(=O)c4ccccc4)nccc32)cc1)c1ccc(N2CCOCC2)c(C(F)(F)F)c1
RESULT: no (0)

====

Test system: HCC-2998 colon
assay remarks: NCI tumour cell line growth inhibition, 48 h
endpoint: TGI (µM)
One number for each entry, in µM.

Consider the worked cases shown below.
QUERY: # lookup: TGI of CC(C)C1=CC23CCC4C(C)(C(=O)O)CCCC4(C)C2CC1C1C(=O)N(c2cccc(N4C(=O)C5C6CC7C8(C)CCCC(C)(C(=O)O)C8CCC7(C=C6C(C)C)C5C4=O)c2)C(=O)C13 (stereo not drawn)
RESULT: 20.3

QUERY: # lookup: TGI of OC1(C2(c3ccc(Cl)cc3)CCCC2)c2ccccc2C2=NCCN21 (stereo not drawn)
RESULT: 4

QUERY: # lookup: TGI of CCCCCCCCCC[N+](C)(C)C
RESULT: 3.53

Take each entry in turn and give its TGI.
1. COc1ccc(-c2cc(-c3ccc(Cl)cc3)nc(SCCCCCCC(=O)NO)n2)cc1
2. COc1cccc(NC(=O)c2ccc(NC3=C(Cl)C(=O)N(Cc4ccccc4)C3=O)cc2)c1
3. CC(=O)Oc1cc(Cl)c(OC(C)=O)c2c(OC(C)=O)c(C)c(O[Si](C)(C)C(C)(C)C)cc12
4. COc1ccc(C[C@H]2NC[C@H](O)[C@H]2OC(C)=O)cc1
5. CC(=Nc1ccccc1)C1=C(O)C(Cc2ccc(F)cc2)NC1=O (stereo not drawn)

RESULT:
[8.37, 30.6, 15.5, 0.0862, 40.1]

====

Record form. Attribute: TGI. Fill in for each entry.
System: UACC-62 melanoma
assay remarks: NCI tumour cell line growth inhibition, 48 h

QUERY: # lookup: TGI of CC(=O)OCc1nnn2c1CCC2
RESULT: > 100 µM

QUERY: # lookup: TGI of CC1(C)CC[C@]2(C(=O)O)CC[C@]3(C)C(=CC[C@@H]4[C@@]5(C)CC[C@H](OC6OC(CO)C(O)C(O)C6O)C(C)(C)[C@@H]5CC[C@]43C)[C@@H]2C1 (stereo not given in full)
RESULT: 3.28 µM

QUERY: # lookup: TGI of COc1cc2c3c(c1OC)C(=O)C(=O)C1=C3N(CCC1)CC2
RESULT: 42 µM

Take each entry in turn and give its TGI.
1. CCOc1ccc(N=Cc2ccc3ccccc3n2)cc1
2. C[C@H]1[C@H](C)CC[C@]2(C(=O)OC3OC(CO)C(O)C(O)C3O)CC[C@]3(C)C(=CC[C@@H]4[C@@]5(C)C[C@@H](O)[C@@H]6OC(=O)c7cc(O)c(O)c(O)c7-c7c(cc(O)c(O)c7O)C(=O)OC[C@]6(CO)[C@@H]5CC[C@]43C)[C@H]12 (stereo not given in full)
3. Cn1c(O)c(C=Nc2ccc(Cl)cc2Cl)c(=O)n(C)c1=O
4. C/C=C(\C)C(=O)N1c2ccccc2CC1c1c(C)[nH]c2ccccc12 (stereo not given)
5. N#CC1=C(S)N(C2OC(CO)C(O)C(O)C2O)C(c2ccccc2)=CC1c1cccs1 (stereo not given)
6. COC(=O)[C@]1(Cc2ccc3ccccc3c2)CCCCCCN1C(=O)c1ccccc1
7. COc1ccc(C(=O)N(Cc2cccnc2)C(=S)N(Cc2cccnc2)C(=O)c2ccc(OC)cc2)cc1

RESULT:
1: > 100 µM; 2: > 100 µM; 3: > 100 µM; 4: > 100 µM; 5: 48.3 µM; 6: > 51.3 µM; 7: > 100 µM

====

Tested on: SN12C renal
assay remarks: NCI tumour cell line growth inhibition, 48 h
endpoint: TGI

Take each entry in turn and give its TGI.
1. NC(N)=NC(N)=Nc1ccc(S(N)(=O)=O)cc1
2. FC(F)(F)C1(c2ccccc2)SCc2nc3ccccc3n21 (stereo not given)
3. CCN(CC)CCOc1ccc(Cc2ccccc2)cc1

RESULT:
1: > 100 µM; 2: > 100 µM; 3: > 100 µM

Take each entry in turn and give its TGI.
1. CC(=O)Oc1cc(Cl)c(OC(C)=O)c2c(OC(C)=O)c(C)c(O[Si](C)(C)C(C)(C)C)cc12
2. COc1c(N2CCN(CN3C(=O)C(=O)c4ccccc43)C(C)C2)c(F)cc2c(=O)c(C(=O)O)cn(C3CC3)c12 (stereo not given)

RESULT:
23.1 µM
> 100 µM

====

Record form. Attribute: TGI. Fill in for each entry.
Test system: BT-549 breast
assay remarks: NCI tumour cell line growth inhibition, 48 h
Numbers only, in µM.

QUERY: Recorded TGI for Cc1ccc(-n2c3c(c4c(CN)c(O)ccc42)CCc2ccccc2C3=O)cc1 with BT-549 breast, please?
RESULT: 31.8

Then this compound:
QUERY: Recorded TGI for CSC1SCC2C(=O)N(C)C(C(C)C)C(=O)OCC(NC(=O)c3cnc4ccccc4n3)C(=O)NC(C)C(=O)N(C)C1C(=O)N(C)C(C(C)C)C(=O)OCC(NC(=O)c1cnc3ccccc3n1)C(=O)NC(C)C(=O)N2C (centres undefined) with BT-549 breast, please?
RESULT: 0.0158

====

System: NCI-H23 lung
assay remarks: NCI tumour cell line growth inhibition, 48 h
Record form. Attribute: TGI. Fill in for each entry.
One number for each entry, in µM.

Consider the worked cases shown below.
QUERY: Recorded TGI for O=S(=O)(NCCNc1cc(-c2cn(-c3ccccc3)nc2-c2cccc(O)c2)ccn1)c1ccc(Br)cc1 with NCI-H23 lung, please?
RESULT: 11.4

QUERY: Recorded TGI for C[C@@]1(O)CCC[C@H]1n1c(=O)c(C(F)F)cc2cnc(NC3CCN(S(C)(=O)=O)CC3)nc21 with NCI-H23 lung, please?
RESULT: 6.69

QUERY: Recorded TGI for COc1ccccc1N1CCN(CCCOc2ccc(C(=O)/C=C3/C(=O)Nc4ccccc43)cc2)CC1 with NCI-H23 lung, please?
RESULT: 38.6

Then this compound:
QUERY: Recorded TGI for CCCCC(N)CSSCC(N)CCCC (stereo not given) with NCI-H23 lung, please?
RESULT: 55.4

====

Tested on: HS 578T breast
assay remarks: NCI tumour cell line growth inhibition, 48 h
Record form. Attribute: TGI. Fill in for each entry.
Give bare numbers, in µM.

Consider the worked cases shown below.
QUERY: # lookup: TGI of Cc1ccccc1C[P+](c1ccccc1)(c1ccccc1)c1ccccc1
RESULT: 33.7

QUERY: # lookup: TGI of Cc1ccc2c(c1)-c1oc(=O)c(-c3cc4ccccc4oc3=O)cc1C(O)O2 (stereo not given)
RESULT: 47.7

Then this compound:
QUERY: # lookup: TGI of CCCCCCC(O)C(O)CCC(O)C1CCC(CCCCC(O)CC2=CC(C)OC2=O)O1 (stereo not given)
RESULT: 6.98

====

Record form. Attribute: TGI. Fill in for each entry.
Test system: MOLT-4 leukemia
assay remarks: NCI tumour cell line growth inhibition, 48 h

Consider the worked cases shown below.
QUERY: # lookup: TGI of CC1=CC2=C(C#N)C(=O)OC2(C)C(c2ccccc2)C1 (stereo not given)
RESULT: > 100 µM

QUERY: # lookup: TGI of O=C(O)CNC(=O)C1NC(C(F)(F)F)(C(F)(F)F)OC1(C(F)(F)F)C(F)(F)F (stereo not given)
RESULT: > 100 µM

QUERY: # lookup: TGI of CSS(C)(=O)=O
RESULT: 10.1 µM

QUERY: # lookup: TGI of Cc1ccc(-n2c3c(c4c(CN)c(O)ccc42)CCc2ccccc2C3=O)cc1
RESULT: 6.51 µM

Take each entry in turn and give its TGI.
1. O=c1c(-c2nc3ccccc3[nH]2)cc2ccccc2n1Cc1cn(Cc2ccccc2Cl)nn1
2. COc1ccc(C[C@H]2NC[C@H](O)[C@H]2OC(C)=O)cc1
3. NC(N)=NC(N)=Nc1ccc(S(N)(=O)=O)cc1
4. COc1cc2c3c(c1OC)C(=O)C(=O)C1=C3N(CCC1)CC2
5. Nc1nc(Cc2ccccc2)nc(Cc2ccccc2)c1-c1ccccc1
6. CC(C)C1NC(=O)[C@H](C)OC(=O)[C@@H](C(C)C)NC(=O)[C@@H](C)OC(=O)C(C(C)C)NC(=O)[C@H](C)OC1=O (stereo not given in full)

RESULT:
1. > 100 µM
2. 0.0642 µM
3. > 100 µM
4. 56.3 µM
5. 59.7 µM
6. > 100 µM

====

Tested on: KM20L2 colon
assay remarks: NCI tumour cell line growth inhibition, 48 h
endpoint: TGI

Take each entry in turn and give its TGI.
1. [N-]=[N+]=NC1C2CC3CC(C2)CC1C3 (stereo not drawn)
2. COc1ccc2c(c1)c(=O)c1c(NCCCN(C)C)ccc3ncn2c31
3. CC(C)c1cc(C(=O)[O-])c(O)c(C(C)C)c1.CC(C)c1cc(C(=O)[O-])c(O)c(C(C)C)c1.CC(C)c1cc(C(=O)[O-])c(O)c(C(C)C)c1.CC(C)c1cc(C(=O)[O-])c(O)c(C(C)C)c1.CC(C)c1cc(C(=O)[O-])c(O)c(C(C)C)c1.CC(C)c1cc(C(=O)[O-])c(O)c(C(C)C)c1.[Cu+2].[Mn+2].[Mn+2]
4. COc1cc(OC)cc(C(=O)Cc2c(C(=O)c3ccccc3)c3ccccc3n2C(=O)c2ccccc2)c1

RESULT:
1: > 100 µM; 2: 17.1 µM; 3: > 100 µM; 4: > 100 µM

Take each entry in turn and give its TGI.
1. COc1c(Cl)[c]([Hg][O]C(C)=O)c(NCC(C)=O)c(OC)[c]1[Hg][O]C(C)=O
2. COc1cc2ccc3c4cc(OC)c(OC(C)C)cc4c[n+](C)c3c2cc1OC

RESULT:
1. > 100 µM
2. > 100 µM

Take each entry in turn and give its TGI.
1. CCCCCCC/C=C1\CCC(CN(C)C)C1=O (stereo not drawn)
2. CC(C)Cc1ccc(C(C)/C=C2\CCC(CN3CCCCC3)C2=O)cc1 (stereo not drawn)

RESULT:
["34.6 µM", "29.1 µM"]
